// provenance: patent US20220096653A1

- targetOrSystem: T1, CEACAM5 (R&D Systems, 4128-CM-050) (human, UniProt P06731 35-685)
- T1 construct: Immobilised on the ELISA plate; also called human CEACAM5
- T1 sequence (looked up): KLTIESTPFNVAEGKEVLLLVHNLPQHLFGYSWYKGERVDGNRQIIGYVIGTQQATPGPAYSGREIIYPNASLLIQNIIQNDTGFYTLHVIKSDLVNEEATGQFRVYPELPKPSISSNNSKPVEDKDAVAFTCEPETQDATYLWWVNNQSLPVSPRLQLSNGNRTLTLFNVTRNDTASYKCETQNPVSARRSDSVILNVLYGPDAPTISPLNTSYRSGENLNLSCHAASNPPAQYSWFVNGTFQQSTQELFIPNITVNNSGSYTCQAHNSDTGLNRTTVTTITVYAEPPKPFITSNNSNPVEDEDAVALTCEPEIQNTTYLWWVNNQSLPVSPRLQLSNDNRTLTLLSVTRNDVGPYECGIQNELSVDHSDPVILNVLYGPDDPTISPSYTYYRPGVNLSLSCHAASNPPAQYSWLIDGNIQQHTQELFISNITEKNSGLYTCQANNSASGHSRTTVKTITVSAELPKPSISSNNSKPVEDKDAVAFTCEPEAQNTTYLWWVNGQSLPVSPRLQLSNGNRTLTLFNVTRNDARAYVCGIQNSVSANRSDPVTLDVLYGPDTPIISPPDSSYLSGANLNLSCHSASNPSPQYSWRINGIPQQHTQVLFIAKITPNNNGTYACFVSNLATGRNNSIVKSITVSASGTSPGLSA
- testSummary: ELISA on immobilised CEACAM5, 4-parameter fit, duplicate
assayMetric: pEC50
The scale used: pEC50 is minus the common logarithm of the concentration in molar units.

Record excerpt, results attached:
(Y-S1-X)p-Fab^2 with Y Gd/DOTA, S1 - (bond), X -Gly-Tyr*-CH2(═O)-NH-(CH2)2-Z1(#N)- (Fab, V domains shown, labeling may sit on this chain; sites not stated; labeling portion (MW 960) on amino groups of the Fab, sites and chain not stated; 1-4 per Fab by MS, also called Ex-No 21; conjugate 21) VH: EVQLVESGGGLVQPGGSLRLSCAASGFNIRDTYMHWVRQAPGKGLEWVARIDPANGNSRYVPKFQGRFTISADTSRNTAYLQMNSLRAEDTAVYYCAPFGYYVSDYAMAYWGQGTLVTVSS VL: DIQLTQSPSSLSASVGDRVTITCRAGESVDIFGVGFLHWYQQKPGKAPKLLIYRASNLESGIPSRFSGSGSRTDFTLTISSLQPEDFATYYCQQTNEDPYTFGQGTKVEIKR :: 9.57
(Y-S1-X)p-Fab^2 with Y Gd/DOTA, S1 spacer (b), X -Gly-Lys*-Z2(#N)- (Fab, V domains shown, labeling may sit on this chain; sites not stated; labeling portion (MW 950) on amino groups of the Fab, sites and chain not stated; 1-3 per Fab by MS, also called Ex-No 27; conjugate 27) VH: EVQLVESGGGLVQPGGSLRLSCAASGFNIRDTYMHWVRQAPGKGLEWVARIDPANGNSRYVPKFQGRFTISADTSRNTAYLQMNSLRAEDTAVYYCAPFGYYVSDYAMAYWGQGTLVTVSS VL: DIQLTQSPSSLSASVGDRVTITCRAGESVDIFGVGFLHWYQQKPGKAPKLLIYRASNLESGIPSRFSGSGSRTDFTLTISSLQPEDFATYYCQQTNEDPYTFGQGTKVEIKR :: 9.34

Please find the next binder below.
Query: Look at this binder and give its reported pEC50. (Y-S1-X)p-Fab^2 with Y Gd/DOTA, S1 -NH-CH2-(1,3-Ph)-C(═O)-, X -Gly-Lys*-Z2(#N)- (Fab, V domains shown, labeling may sit on this chain; sites not stated; labeling portion (MW 958) on amino groups of the Fab, sites and chain not stated; 1-3 per Fab by MS, also called Ex-No 9; conjugate 9) VH: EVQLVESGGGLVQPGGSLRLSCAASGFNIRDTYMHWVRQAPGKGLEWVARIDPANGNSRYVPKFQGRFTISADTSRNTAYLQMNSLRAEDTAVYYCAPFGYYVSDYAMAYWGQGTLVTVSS VL: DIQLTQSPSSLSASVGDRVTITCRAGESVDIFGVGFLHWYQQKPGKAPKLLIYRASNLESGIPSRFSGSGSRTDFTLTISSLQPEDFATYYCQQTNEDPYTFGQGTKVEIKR
Reply: 10.00
